Hello, the source for this data is patent US20240425478A1, in case you need it.

- target-of-assay: Cyclin Dependent Kinase 1/Cyclin A2 (CDK1-cycA2) (Homo sapiens)
- Construct: purchased ProQinase 0134-0054-1
- Sequence (P06493 whole entry): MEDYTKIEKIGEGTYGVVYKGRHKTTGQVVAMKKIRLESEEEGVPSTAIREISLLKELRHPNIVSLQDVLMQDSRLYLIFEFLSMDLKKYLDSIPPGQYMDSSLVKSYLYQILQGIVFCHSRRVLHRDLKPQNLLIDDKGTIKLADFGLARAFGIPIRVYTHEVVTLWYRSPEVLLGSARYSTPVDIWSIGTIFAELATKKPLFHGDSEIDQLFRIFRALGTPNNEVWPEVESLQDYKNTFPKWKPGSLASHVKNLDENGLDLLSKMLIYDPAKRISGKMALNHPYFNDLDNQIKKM
- Sequence (P20248 whole entry partner): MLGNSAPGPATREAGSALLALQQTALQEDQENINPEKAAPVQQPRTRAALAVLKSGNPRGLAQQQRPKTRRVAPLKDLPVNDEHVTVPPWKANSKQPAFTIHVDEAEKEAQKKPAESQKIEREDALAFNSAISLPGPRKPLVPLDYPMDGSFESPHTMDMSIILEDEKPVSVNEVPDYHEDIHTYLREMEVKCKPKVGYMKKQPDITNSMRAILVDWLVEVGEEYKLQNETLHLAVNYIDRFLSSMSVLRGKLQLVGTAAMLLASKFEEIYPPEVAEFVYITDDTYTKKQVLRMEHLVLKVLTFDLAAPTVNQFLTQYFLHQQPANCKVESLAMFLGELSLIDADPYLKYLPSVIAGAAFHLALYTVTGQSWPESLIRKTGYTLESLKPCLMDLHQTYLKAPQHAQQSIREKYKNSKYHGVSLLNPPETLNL
- method: CDK1-cycA2 TR-FRET (Lance) enzyme assay
- Type: biochemical
- measurement-parameters: Table O, enzymatic assay
recorded-metric: Ki (µM)
I only need the number, in µM, no unit after it.

Lookup: Return the recorded Ki value; entry: COc1ncc(Nc2cc([C@H]3CC[C@@H](OC(=O)NC(C)C)C3)[nH]n2)c(C)n1
Found: 1.2

Lookup: Please list Ki recorded for the molecule CNC(=O)c1cnc(Nc2cc([C@H]3CC[C@@H](OC(=O)NC45CC(C4)C5)C3)[nH]n2)c(C)n1
Found: 0.069

----------
Readings of FS CDK1/CDK2 for the listed compounds
- target-of-assay: Cyclin Dependent Kinase 2/Cyclin E1 (CDK2-cycE1) (Homo sapiens)
- Construct: purchased ProQinase 0050-0055-1
- method: CDK2-cycE1 TR-FRET (LANCE) enzyme assay
- Type: biochemical
- measurement-parameters: Table O, fold selectivity, enzymatic CDK1 Ki over CDK2 Ki
I only need the number, thanks.

The examples below pair each entry with its known result.
CC(C)NC(=O)O[C@@H]1CC[C@H](c2cc(Nc3ccc(-n4cccn4)cn3)n[nH]2)C1 : 52
CC1(NC(=O)O[C@@H]2CC[C@H](c3cc(Nc4cccnn4)n[nH]3)C2)COC1 : 29

Lookup: Annotate the compound Cc1nnccc1Nc1cc([C@H]2CC[C@@H](OC(=O)NC(C)(C)C)C2)[nH]n1 [Example 11A] with its measured FS CDK1/CDK2.
Found: 132

Lookup: Supply measured FS CDK1/CDK2 of CC1(NC(=O)O[C@@H]2CC[C@H](c3cc(Nc4ccc(C#N)cn4)n[nH]3)C2)COC1 [Example 10E] in your reply.
Found: 32

----------
- target-of-assay: Cyclin Dependent Kinase 1/Cyclin A2 (CDK1-cycA2) (Homo sapiens)
- Construct: purchased ProQinase 0134-0054-1
- method: CDK1-cycA2 TR-FRET (Lance) enzyme assay
- Format: biochemical
- measurement-parameters: Table O, enzymatic assay
- Method: Cyclin Dependent Kinase 1/Cyclin A2 (CDK1-cycA2), Cyclin Dependent Kinase 2/Cyclin E1 (CDK2-cycE1), Cyclin Dependent Kinase 4/Cyclin D3 (CDK4-cycD3) and Cyclin Dependent Kinase 6/Cyclin D3 (CDK6-cycD3) enzyme assays were carried out as described below. […] An Echo acoustic dispenser is used to create dose responses of compound dissolved in DMSO into a 384-well microplate. […] Signal is a ratio of the Acceptor and Donor fluorescence. Inhibition constants are calculated via the Morrison equation.
recorded-metric: Ki

Here is how some compounds turned out for Ki.
COc1nc(C)ncc1Nc1cc([C@H]2CC[C@@H](OC(=O)NC(C)C)C2)[nH]n1 [Example 2Y] : 7500 nM
CC(C)NC(=O)O[C@@H]1CC[C@H](c2cc(Nc3ccncn3)n[nH]2)C1 [Example 2C] : 43 nM
Cc1ncccc1Nc1cc([C@H]2CC[C@@H](OC(=O)N[C@@H]3CCN(C)C3)C2)[nH]n1 [Example 7B] : 3300 nM

Lookup: Please supply the value of reported Ki for the item Cc1nc(C#N)ccc1Nc1cc([C@H]2CC[C@@H](OC(=O)NC(C)C)C2)[nH]n1 [Example 2Z]
Found: 550 nM

----------
- target-of-assay: Cyclin Dependent Kinase 4/Cyclin D3 (CDK4-cycD3) (Homo sapiens, UniProt P11802)
- Construct: purchased Carna Biosciences 04-105
- Sequence (P11802 whole entry): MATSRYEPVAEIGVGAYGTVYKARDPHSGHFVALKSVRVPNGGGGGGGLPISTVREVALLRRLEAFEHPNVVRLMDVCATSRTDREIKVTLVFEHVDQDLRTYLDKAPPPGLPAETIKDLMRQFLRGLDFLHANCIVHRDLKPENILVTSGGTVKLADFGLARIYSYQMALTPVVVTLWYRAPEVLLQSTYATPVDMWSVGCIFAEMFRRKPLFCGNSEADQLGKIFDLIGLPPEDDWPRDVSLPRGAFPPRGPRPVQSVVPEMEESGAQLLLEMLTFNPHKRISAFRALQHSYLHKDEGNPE
- Sequence (P30281 whole entry partner): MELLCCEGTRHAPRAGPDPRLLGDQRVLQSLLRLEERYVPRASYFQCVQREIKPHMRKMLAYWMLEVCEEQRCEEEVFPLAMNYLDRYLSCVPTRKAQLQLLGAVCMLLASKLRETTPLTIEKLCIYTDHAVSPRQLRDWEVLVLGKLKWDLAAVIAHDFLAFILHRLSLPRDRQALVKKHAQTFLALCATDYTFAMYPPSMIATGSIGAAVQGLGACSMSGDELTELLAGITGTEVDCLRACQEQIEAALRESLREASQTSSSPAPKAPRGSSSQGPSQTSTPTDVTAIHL
- method: CDK4-cycD3 TR-FRET (LANCE) enzyme assay
- Assay type: biochemical
- measurement-parameters: Table O, enzymatic assay
- Experimental: Cyclin Dependent Kinase 1/Cyclin A2 (CDK1-cycA2), Cyclin Dependent Kinase 2/Cyclin E1 (CDK2-cycE1), Cyclin Dependent Kinase 4/Cyclin D3 (CDK4-cycD3) and Cyclin Dependent Kinase 6/Cyclin D3 (CDK6-cycD3) enzyme assays were carried out as described below. […] An Echo acoustic dispenser is used to create dose responses of compound dissolved in DMSO into a 384-well microplate. […] Signal is a ratio of the Acceptor and Donor fluorescence. Inhibition constants are calculated via the Morrison equation.
recorded-metric: pKi
When answering, recall that pKi equals minus log10 of the concentration in mol/L, and write that number alone.

Some solved entries appear below for comparison.
Cc1ncncc1Nc1cc([C@H]2CC[C@@H](OC(=O)NC(C)C)C2)[nH]n1 : 5.74
CC1(NC(=O)O[C@@H]2CC[C@H](c3cc(Nc4cccnn4)n[nH]3)C2)CNC1 : 7.62
CC(C)(C)NC(=O)O[C@@H]1CC[C@H](c2cc(Nc3ccnnc3)n[nH]2)C1 : 7.28
CC(C)NC(=O)O[C@@H]1CC[C@H](c2cc(Nc3cncnc3)n[nH]2)C1 : 6.41

Lookup: Recall the reported pKi of CC(C)NC(=O)O[C@@H]1CC[C@H](c2cc(Nc3ccc(-n4cccn4)cn3)n[nH]2)C1 on Cyclin Dependent Kinase 4/Cyclin D3 (CDK4-cycD3) (Homo sapiens, UniProt P11802) and write it down.
Found: 6.46

Lookup: Consider the compound CC(C)NC(=O)O[C@@H]1CC[C@H](c2cc(Nc3ccncn3)n[nH]2)C1 tested on Cyclin Dependent Kinase 4/Cyclin D3 (CDK4-cycD3) (Homo sapiens, UniProt P11802); state its pKi.
Found: 7.02

----------
- target-of-assay: Cyclin Dependent Kinase 2/Cyclin E1 (CDK2-cycE1) (Homo sapiens)
- Construct: purchased ProQinase 0050-0055-1
- method: CDK2-cycE1 TR-FRET (LANCE) enzyme assay
- Format: biochemical
- measurement-parameters: Table O, enzymatic assay; read-out: CDK2 Ki
// log10 of Ki lookup, one value per entry
Log scale reminder: Ki in nM, then log10 taken.

Example compounds with recorded log10 of Ki:
CNC(=O)c1ccc(Nc2cc([C@H]3CC[C@@H](OC(=O)NC(C)(C)C)C3)[nH]n2)nc1 : 0.20
O=C(NC12CC(C1)C2)O[C@@H]1CC[C@H](c2cc(Nc3ccnnc3C3CC3)n[nH]2)C1 : 1.08
CC(C)NC(=O)O[C@@H]1CC[C@H](c2cc(Nc3cc(=O)[nH]cn3)n[nH]2)C1 : -0.48
O=C(NC12CC(C1)C2)O[C@@H]1CC[C@H](c2cc(Nc3ccc(CO)nc3)n[nH]2)C1 : -0.42

Lookup: Fetch value of log10 of Ki on Cyclin Dependent Kinase 2/Cyclin E1 (CDK2-cycE1) (Homo sapiens) for CC1(NC(=O)O[C@@H]2CC[C@H](c3cc(Nc4ccc(C#N)cn4)n[nH]3)C2)COC1 [Example 10E] .
Found: -0.11

Lookup: Please report log10 of Ki with Cyclin Dependent Kinase 2/Cyclin E1 (CDK2-cycE1) (Homo sapiens) for item CNC(=O)c1ccnc(Nc2cc([C@H]3CC[C@@H](OC(=O)NC(C)(C)C)C3)[nH]n2)c1 .
Found: 0.40

Lookup: Report value: log10 of Ki, system: Cyclin Dependent Kinase 2/Cyclin E1 (CDK2-cycE1) (Homo sapiens), compound: Cc1nc(C#N)ccc1Nc1cc([C@H]2CC[C@@H](OC(=O)NC(C)(C)C)C2)[nH]n1 [Example 10D]
Found: -0.36

Lookup: State, for Cyclin Dependent Kinase 2/Cyclin E1 (CDK2-cycE1) (Homo sapiens), measured log10 of Ki of the compound listed here: CC[C@@H](C)NC(=O)O[C@@H]1CC[C@H](c2cc(Nc3cccnn3)n[nH]2)C1 (single isomer, unassigned)
Found: 1.26

Lookup: Under Cyclin Dependent Kinase 2/Cyclin E1 (CDK2-cycE1) (Homo sapiens), report log10 of Ki for C[C@H](NC(=O)O[C@@H]1CC[C@H](c2cc(Nc3ccc(=O)n(C)n3)n[nH]2)C1)c1ccccc1
Found: 0.46

Lookup: Write down the reported log10 of Ki (system: Cyclin Dependent Kinase 2/Cyclin E1 (CDK2-cycE1) (Homo sapiens)) of CC(C)NC(=O)O[C@@H]1CC[C@H](c2cc(Nc3cncnc3)n[nH]2)C1
Found: 0.53

Lookup: Tell me its log10 of Ki on Cyclin Dependent Kinase 2/Cyclin E1 (CDK2-cycE1) (Homo sapiens): Cc1cncc(Nc2cc([C@H]3CC[C@@H](OC(=O)NC(C)C)C3)[nH]n2)c1
Found: 0.51

Lookup: Quote Cyclin Dependent Kinase 2/Cyclin E1 (CDK2-cycE1) (Homo sapiens) log10 of Ki for entry COc1nccc(Nc2cc([C@H]3CC[C@@H](OC(=O)NC(C)C)C3)[nH]n2)n1 .
Found: -0.39

----------
- target-of-assay: Cyclin Dependent Kinase 2/Cyclin E1 (CDK2-cycE1) (Homo sapiens)
- Construct: purchased ProQinase 0050-0055-1
- method: CDK2-cycE1 TR-FRET (LANCE) enzyme assay
- Format: biochemical
- measurement-parameters: Table O, fold selectivity, enzymatic CDK4 Ki over CDK2 Ki
recorded-metric: FS CDK4/CDK2
Please give only the number in your answer, with no unit.

Example results:
CC(C)(C)NC(=O)O[C@@H]1CC[C@H](c2cc(Nc3ccccn3)n[nH]2)C1 : 16
C[C@@H](NC(=O)O[C@@H]1CC[C@H](c2cc(Nc3cccnn3)n[nH]2)C1)C(F)(F)F (single isomer, unassigned) : 20

Now for the molecule whose FS CDK4/CDK2 we want.
Lookup: Write down FS CDK4/CDK2 measured for item COc1ccc(Nc2cc([C@H]3CC[C@@H](OC(=O)NC(C)C)C3)[nH]n2)nn1
Found: 16
